Documented Bliss excess across a set of compounds
Tested on: HCC-827 (Lung Adenocarcinoma);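 note: after 72 h of two-drug dosing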
Test: Bliss excess, mean over the matrix (fraction); higher = more synergy
Readout Kind: Bliss excess

* Cc1c2c(nn1C)CSCc1cc(n(C)n1)CSc1cc(c3ccccc3c1)OCCCc1c(C(=O)O)n(C)c3c-2c(Cl)ccc13 [AZD5991] + C1CN(CCC1(C(=O)N[C@@H](CCO)C2=CC=C(C=C2)Cl)N)C3=NC=NC4=C3C=CN4 [Capivasertib] (first compound max 1 µM, 7x7, partner max 3 µM) | -0.0212
* CN(CCO)CC[C@H](CSc1ccccc1)Nc1ccc(S(=O)(=O)NC(=O)c2ccc(N3CCC([C@@H](O)c4ccccc4-c4ccc(Cl)cc4)CC3)cc2)cc1S(=O)(=O)C(F)(F)F [AZD4320] + C1CN(CCC1(C(=O)N[C@@H](CCO)C2=CC=C(C=C2)Cl)N)C3=NC=NC4=C3C=CN4 [Capivasertib] (first compound max 1 µM, 7x7, partner max 3 µM) | -0.0644
* CCN(CCO)CCCOc1ccc2c(Nc3cc(CC(=O)Nc4cccc(F)c4)[nH]n3)ncnc2c1 [AZD2811] + C=CCn1c(=O)c2cnc(Nc3ccc(N4CCN(C)CC4)cc3)nc2n1-c1cccc(C(C)(C)O)n1 [AZD1775] (first compound max 1 µM, partner max 1 µM) | 0.0272
* Cn1cnc2c(F)c(Nc3ccc(Br)cc3Cl)c(C(=O)NOCCO)cc21 [Selumetinib] + C=CCn1c(=O)c2cnc(Nc3ccc(N4CCN(C)CC4)cc3)nc2n1-c1cccc(C(C)(C)O)n1 [AZD1775] (first compound max 10 µM, partner max 1 µM) | -0.026

Every entry's value here was drawn from the supplement of paper PMC11061612.
